Listed here are compounds together with their documented inhibition (INH).
- System: Hepatitis C virus
- TEST_PROTOCOL: Antiviral activity against HCV genotype 4a ED-43/SG-feo (VYG) replicons infected in human Huh7.5 cells assessed as inhibition of viral replication at non-toxic dose after 72 hrs by immunofluorescence assay
- Type: functional, Hepacivirus hominis, Huh-7
READOUT_NAME: inhibition (INH) (%)

> print(dat)
                               smiles.input      readout.name  result.number
1  Clc1cccc(-n2c(-c3ccccc3)c(-c3ccccc3)c3c(Cl)ncnc32)c1  inhibition (INH)              0
2  NNc1ncnc2c1c(-c1ccccc1)c(-c1ccccc1)n2-c1cccc(Cl)c1  inhibition (INH)              0
3  Cc1ccccc1Nc1ncnc2c1c(-c1ccccc1)c(-c1ccccc1)n2-c1ccc(Cl)cc1  inhibition (INH)             90
4  Clc1ccc(-n2c(-c3ccccc3)c(-c3ccccc3)c3c(Cl)ncnc32)cc1  inhibition (INH)           73.3

----------
- TEST_PROTOCOL: Cytotoxicity against human Huh7.5 cells infected with HCV genotype 4a assessed as morphological changes after 72 hrs by inverted light microscopy
- Assay type: cell-based, Huh-7
READOUT_NAME: CC50 at 72 h (µM)

> print(dat)
                                smiles.input  result.number
 1  O=c1[nH]cnc2c1c(-c1ccccc1)c(-c1ccccc1)n2-c1cccc(Cl)c1            151
 2  Cc1nc2c(c(-c3ccccc3)c(-c3ccccc3)n2-c2ccc(Cl)cc2)c(=O)[nH]1             97
 3  Clc1cccc(-n2c(-c3ccccc3)c(-c3ccccc3)c3c2ncn2cnnc32)c1            190
 4  Cc1ccccc1Nc1ncnc2c1c(-c1ccccc1)c(-c1ccccc1)n2C1CCCCC1            153
 5  S=c1[nH]nc2c3c(-c4ccccc4)c(-c4ccccc4)n(-c4ccc(Cl)cc4)c3ncn12            138
 6  Clc1ccc(/C=N/Nc2ncnc3c2c(-c2ccccc2)c(-c2ccccc2)n3C2CCCCC2)cc1            158
 7  Cc1nc2c(c(-c3ccccc3)c(-c3ccccc3)n2-c2cccc(Cl)c2)c(=O)[nH]1             97
 8  CC(=O)Nc1c(C#N)c(-c2ccccc2)c(-c2ccccc2)n1-c1ccc(Cl)cc1            146
 9  Clc1ccc(-n2c(-c3ccccc3)c(-c3ccccc3)c3c(N/N=C/c4ccccc4)ncnc32)cc1            140
10  S=c1[nH]nc2c3c(-c4ccccc4)c(-c4ccccc4)n(-c4cccc(Cl)c4)c3ncn12            184
11  CC(=O)Nc1c(C#N)c(-c2ccccc2)c(-c2ccccc2)n1C1CCCCC1            183
12  NNc1ncnc2c1c(-c1ccccc1)c(-c1ccccc1)n2-c1cccc(Cl)c1            146
13  Clc1cccc(-n2c(-c3ccccc3)c(-c3ccccc3)c3c(N/N=C/c4ccccc4)ncnc32)c1            140
14  Cc1cc(C)n(-c2ncnc3c2c(-c2ccccc2)c(-c2ccccc2)n3-c2cccc(Cl)c2)n1            147
15  O=c1[nH]cnc2c1c(-c1ccccc1)c(-c1ccccc1)n2C1CCCCC1            190
16  Cc1ccc(Nc2ncnc3c2c(-c2ccccc2)c(-c2ccccc2)n3-c2cccc(Cl)c2)cc1            123
17  Clc1ccc(/C=N/Nc2ncnc3c2c(-c2ccccc2)c(-c2ccccc2)n3-c2ccc(Cl)cc2)cc1            131
18  CC(=O)Nc1c(C#N)c(-c2ccccc2)c(-c2ccccc2)n1-c1cccc(Cl)c1            146
19  Cc1ccccc1Nc1ncnc2c1c(-c1ccccc1)c(-c1ccccc1)n2-c1cccc(Cl)c1            144
20  Clc1ccc(-n2c(-c3ccccc3)c(-c3ccccc3)c3c(Nc4ccccc4)ncnc32)cc1            127
